molecular target: recombinant human DPP9 (rhDPP9) (Homo sapiens); construct: purchased R&S system / R&D systems (both sic) 5419-SE; assay: DPP9 enzymatic activity assay, 40 ng rhDPP9, HEPES buffer; assay type: biochemical; settings: Table 3A
Sequence (Q86TI2 whole entry): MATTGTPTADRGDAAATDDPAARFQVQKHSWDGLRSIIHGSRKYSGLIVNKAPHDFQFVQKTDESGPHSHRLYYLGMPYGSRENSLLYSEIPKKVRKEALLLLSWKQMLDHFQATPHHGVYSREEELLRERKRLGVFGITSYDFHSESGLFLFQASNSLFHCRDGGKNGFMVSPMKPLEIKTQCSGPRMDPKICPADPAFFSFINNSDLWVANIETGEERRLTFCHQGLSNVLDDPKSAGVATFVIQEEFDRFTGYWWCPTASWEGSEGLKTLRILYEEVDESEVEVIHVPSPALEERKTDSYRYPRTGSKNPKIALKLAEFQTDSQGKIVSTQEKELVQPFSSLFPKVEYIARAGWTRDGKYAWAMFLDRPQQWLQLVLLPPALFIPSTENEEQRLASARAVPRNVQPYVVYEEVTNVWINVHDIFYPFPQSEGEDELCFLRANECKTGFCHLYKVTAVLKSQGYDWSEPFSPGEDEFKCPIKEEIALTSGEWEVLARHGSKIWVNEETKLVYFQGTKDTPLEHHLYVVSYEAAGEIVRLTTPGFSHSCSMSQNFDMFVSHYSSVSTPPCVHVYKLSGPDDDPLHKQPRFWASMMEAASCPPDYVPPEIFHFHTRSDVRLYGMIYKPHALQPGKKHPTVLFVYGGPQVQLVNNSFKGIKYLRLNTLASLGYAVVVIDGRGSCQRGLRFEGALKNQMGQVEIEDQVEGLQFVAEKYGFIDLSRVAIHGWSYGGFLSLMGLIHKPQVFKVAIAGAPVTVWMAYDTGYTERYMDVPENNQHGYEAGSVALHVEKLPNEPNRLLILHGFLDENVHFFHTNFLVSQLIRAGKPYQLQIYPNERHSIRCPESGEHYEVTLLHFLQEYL
Property Label: IC50

{"columns": ["Compound", "Result"],
 "data": [
  ["CC(Nc1cnccc1C(=O)NCC(=O)N1CC(F)(F)C[C@H]1C#N)c1ccc(F)cc1 (stereo partly drawn) [Compound 4]", "> 10 µM"],
  ["N#C[C@@H]1CC(F)(F)CN1C(=O)CNC(=O)c1ccncc1NC(=O)Cc1ccccc1 [Compound 1]", "> 10 µM"],
  ["N#C[C@@H]1CC(F)(F)CN1C(=O)CNC(=O)c1ccncc1NCc1ccc(F)cc1 [Compound 2]", "> 10 µM"]
]}

Task item: What measured IC50 goes with N#C[C@@H]1CC(F)(F)CN1C(=O)CNC(=O)c1ccncc1Cc1ccccc1F [Compound 7] ?
Reply: 1 to 10 µM

Task item: COc1ccc(C(=O)Nc2cnccc2C(=O)NCC(=O)N2CC(F)(F)C[C@H]2C#N)cc1 [Compound 3] ?
Reply: 1 to 10 µM

Task item: N#C[C@@H]1CC(F)(F)CN1C(=O)CNC(=O)c1ccnc(N2CCN(C(c3ccc(F)cc3)c3ccc(F)cc3)CC2)c1 [Compound 6] ?
Reply: 1 to 10 µM

Ref: patent US20200216417A1
